Tested on: ASPC-1 tumor-bearing mice
Experiment: Biodistribution of radionuclide labeled complexes in ASPC-1 tumor-bearing mice
Type: in vivo, BALB/c nude mice
Settings: Heart, 72 h
PROPERTY NAME: % ID/g (72 h) Heart (% ID/g)

[
  {
    "COMPOUND": "COc1cccc(OC)c1-c1cc(C(=O)NC2(C(=O)O)C3CC4CC(C3)CC2C4)nn1-c1ccc(N(C)CCCN(C)CCCN(C)C(=O)CN2CCN(CC(=O)[O-])CCN(CC(=O)[O-])CCN(CC(=O)[O-])CC2)cc1C(C)C.[177Lu+3] (stereo not drawn) [^177Lu-I-1]",
    "NUMERIC RESULT": 0.18
  },
  {
    "COMPOUND": "COc1cccc(OC)c1-c1cc(C(=O)NC2(C(=O)O)C3CC4CC(C3)CC2C4)nn1-c1ccc(NCCCN(C)CCCNC(=O)CN2CCN(CC(=O)[O-])CCN(CC(=O)[O-])CCN(CC(=O)[O-])CC2)cc1C(C)C.[177Lu+3] (stereo not drawn) [^177Lu-I-2]",
    "NUMERIC RESULT": 0.18
  },
  {
    "COMPOUND": "COc1cccc(OC)c1-c1cc(C(=O)NC2(C(=O)O)C3CC4CC(C3)CC2C4)nn1-c1ccc(C(=O)N(C)CCCN(C)CCCN(C)C(=O)CN2CCN(CC(=O)[O-])CCN(CC(=O)[O-])CCN(CC(=O)[O-])CC2)cc1C(C)C.[177Lu+3] (stereo not drawn) [^177Lu-C-2, reference compound]",
    "NUMERIC RESULT": 0.16
  }
]

[1] COc1cccc(OC)c1-c1cc(C(=O)NC2(C(=O)O)C3CC4CC(C3)CC2C4)nn1-c1ccc(NCCOCCOCCNC(=O)CN2CCN(CC(=O)[O-])CCN(CC(=O)[O-])CCN(CC(=O)[O-])CC2)cc1C(C)C.[177Lu+3] (stereo not drawn) [^177Lu-I-10]
[2] COc1cccc(OC)c1-c1cc(C(=O)NC2(C(=O)O)C3CC4CC(C3)CC2C4)nn1-c1ccc(NC(=O)CCCN(C)CCCN(C)C(=O)CN2CCN(CC(=O)[O-])CCN(CC(=O)[O-])CCN(CC(=O)[O-])CC2)cc1C(C)C.[177Lu+3] (stereo not drawn) [^177Lu-I-5]
[3] COc1cccc(OC)c1-c1cc(C(=O)NC2(C(=O)O)C3CC4CC(C3)CC2C4)nn1-c1ccc(OCCCN(C)CCCN(C)C(=O)CN2CCN(CC(=O)[O-])CCN(CC(=O)[O-])CCN(CC(=O)[O-])CC2)cc1C(C)C.[177Lu+3] (stereo not drawn) [^177Lu-I-7]
Please list the entries, largest % ID/g (72 h) Heart first. // ordering of labels required in reply
2, 3, 1
(2: 0.15 % ID/g, 3: 0.08 % ID/g, 1: 0.01 % ID/g)

All values here come from patent US20240287046A1.
